// reported IC50 for each item listed
test-description: Visual cytotoxicity in stationary HFF cells at time of plaque enumeration
Format: cell-based, human
settings: human, stationary human foreskin fibroblasts (HFF cells); visual cytotoxicity on HFF cells at time of HCMV plaque enumeration; read-out: 50% Inhibitory Concentration, Cytotoxicity (HFF)
measurement-label: IC50 (µM)

INSERT INTO assay_data (compound, measure_unit, qualifier, value) VALUES
  ('CCCCOC[C@H]1O[C@@H](n2c(Cl)nc3cc(Cl)c(Cl)cc32)[C@H](OC(C)=O)[C@@H]1OC(C)=O', 'µM', '=', 66),
  ('CCCCOC[C@H]1O[C@@H](n2c(Cl)nc3cc(Cl)c(Cl)cc32)[C@H](O)[C@@H]1O', 'µM', '=', 32),
  ('COC[C@H]1O[C@@H](n2c(Cl)nc3cc(Cl)c(Cl)cc32)[C@H](O)[C@@H]1O', 'µM', '=', 26),
  ('Nc1nc(O)c2ncn(COC(CO)CO)c2n1 [DHPG, ganciclovir, reference compound]', 'µM', '>', 100),
  ('CCOC[C@H]1O[C@@H](n2c(Cl)nc3cc(Cl)c(Cl)cc32)[C@H](O)[C@@H]1O', 'µM', '=', 26);
